Test system: HT29 colon
experimental_details: NCI tumour cell line growth inhibition, 48 h
assay_metric: TGI

Example molecules with recorded TGI:
{"molecule": "COc1cc2c(c(OC)c1OC)-c1ccc(SC)c(=O)cc1C(CC(=O)Oc1cccc([N+](=O)[O-])c1)C2 (stereo unspecified)", "TGI": "1.99 µM"}
{"molecule": "Cc1nc2c(c(N3CCCc4ccccc43)n1)CCC2", "TGI": "0.0131 µM"}
{"molecule": "COc1ccc(OC)c(NCC(=O)Nn2cnc3ccc(S(=O)(=O)Nc4cc(OC)ccc4OC)cc3c2=O)c1", "TGI": "> 100 µM"}
{"molecule": "CCOC(=O)C(=O)Nc1nc2c(OCC)cccc2s1", "TGI": "> 100 µM"}

For every listed record, write down its TGI.
1. CSC(=NC#N)S/C=C/C(=O)c1ccccc1
2. N#CCc1c(-c2ccccc2)n(S(=O)(=O)c2ccccc2)c2ccccc12
3. CCOP(=O)(OCC)/C(C#N)=C/c1cccn1C(C)C
4. Oc1ccc(Nc2ccc3ccccc3c2)cc1
5. NC(N)=NCC1CCCCCCN1 (stereo unspecified)
6. CC1=C2CC(C)(C)/C=C\C(=O)/C(C)=C\C3=C[C@H](C)C[C@]3(O2)C1=O

Output line:
1: > 100 µM; 2: > 100 µM; 3: > 100 µM; 4: 65.8 µM; 5: > 100 µM; 6: 2.76 µM

Input line: Look up and state reported TGI for CC(C)N1CCN(c2ccncc2S(=O)(=O)N2CCCCC2)CC1
Output line: > 100 µM
